Molecular target: T1, Ac-VQIINK-NH2
T1 peptide: Ac-VQIINK-NH2
Experiment: cell-based or functional assay
RECORDED_METRIC: IC50 (µM), VQIINK Inhibition (ThT)
Kindly provide the numeric value in µM only, without the unit symbol.

Request: So what's the measured IC50 (µM), VQIINK Inhibition (ThT) for this one? WAIRIRW
Response: 1.94

Request: Returns the measured IC50 (µM), VQIINK Inhibition (ThT) for the input binder. Input: RRIRIRW
Response: 4.29

Request: Could you tell me which IC50 (µM), VQIINK Inhibition (ThT) is on file for WRIRIRW ?
Response: 2.96

Request: Could you share which IC50 (µM), VQIINK Inhibition (ThT) value was measured for WRIRLYWW ?
Response: 2.35
